Data origin, for the record: PubChem BioAssay (NCI)

Provide the reported TGI of each item.
System: MDA-MB-231 breast
Assay: NCI tumour cell line growth inhibition, 48 h

Task: Sample COC(=O)c1cc2c3c(c1)Oc1cc(C(=O)OC)cc4c1C3c1c(cc(C(=O)OC)cc1O4)O2 — what was its TGI?
Output: > 100 µM

Task: Param item: C[C@]12CC[C@@H]3c4cc(Br)c(O)c(Br)c4CC[C@H]3[C@@H]1CCC2=O
Output: > 100 µM

Task: Param item: CNC(=O)C(C)C1C(=O)/C(=C(O)/C=C\C(C)=C\C(C)C2OC3(C)OC(C=CC34CO4)C2C)C(=O)N1C1CCC(O)C(C)O1 (stereo not given)
Output: > 100 µM

Task: Param item: N#CC(=N)c1ncn(CCO)c1NC(=O)C(F)(F)F
Output: > 100 µM

Task: Param item: CC(C)NCC(O)c1cc(OCc2ccccc2)c(OCc2ccccc2)cc1NC(=O)CCC(=O)O (stereo not given)
Output: 20.9 µM

###

Test system: SK-MEL-2 melanoma
Experiment: NCI tumour cell line growth inhibition, 48 h
value_kind: GI50

Task: Sample COC(=O)C1=C(O)[C@H](C(=O)OC)C2(O)[C@@H](C(=O)OC)[C@H]1C[C@@H](c1ccc(OC(=O)n3ccnc3)cc1)[C@@H]2C(=O)OC — what was its GI50?
Output: 22800 nM

Task: Param item: Cn1cc(C2=C(c3cn(CCCO)c4ccccc34)C(=O)NC2=O)c2ccccc21
Output: 1790 nM

Task: Param item: COc1ccc2c(c1)C(=O)c1c-2n(CCCNCCO)c(=O)c2ccccc12
Output: 734 nM

Task: Param item: C[C@@]1(CO)[C@H](O)CC[C@@]2(C)[C@H]1CC[C@H]1C[C@@H]3C[C@@]12CC[C@@]3(O)COC(=O)CN
Output: > 500000 nM

###

Test system: SNB-19 CNS
Test: NCI tumour cell line growth inhibition, 48 h
value_kind: TGI

Task: Given the entry CCOc1cc2c[n+](C)c3c4cc(OC)c(OC)cc4ccc3c2cc1OC , what TGI was observed with SNB-19 CNS?
Output: > 100 µM

Task: Param item: N#Cc1c(-c2ccccc2)c(C#N)c(=S)n(C2OC(CO)C(O)C(O)C2O)c1N (stereo not drawn)
Output: > 100 µM

Task: Param item: Cc1cccc(C)c1NC(=O)/C(Cc1nc2ccc([N+](=O)[O-])cc2[nH]c1=O)=N\NC(N)=O
Output: > 100 µM

Task: Param item: COc1ccc(CCn2nccc2C)cc1
Output: > 100 µM

Task: Param item: Cn1cnc([N+](=O)[O-])c1[Se]c1ncnc2nc[nH]c12
Output: 85.8 µM

Task: Param item: CN(C)CCNc1ccc2c(=O)n(CCN(C)C)c(=O)n3c4ccccc4c(=O)c1c23
Output: 7.12 µM

Task: Param item: Cc1cc(C)c2cc(N)c(Cl)nc2n1
Output: > 100 µM

Task: Param item: CCCCc1ccc(Nc2nc(=S)c3ncn(COCCO)c3[nH]2)cc1
Output: > 100 µM

Task: Param item: CCOC(=O)C1C(=O)C(C(=O)OCC)C(c2ccccc2)N(C)C1c1ccccc1 (stereo not drawn)
Output: > 100 µM

Task: Param item: CC1=C(C(=O)CC(=O)C(=O)Nc2ccccc2C(F)(F)F)Sc2ccccc2N1
Output: > 100 µM

Task: Param item: Clc1ccc(/C=C2\CCCC3C2=Nc2ccccc2NC3c2ccc(Cl)cc2)cc1 (stereo not drawn)
Output: > 100 µM

Task: Param item: FC(F)(F)C1(Cl)C(Cl)(c2ccccc2)C1(Cl)c1ccccc1 (stereo not drawn)
Output: 32.5 µM

Task: Param item: Cn1c(=O)c2c(nc3sc4nc5ccccc5nc4n32)n(C)c1=O
Output: > 100 µM

Task: Param item: Cc1ccc(C2=C(c3ccc(C)cc3)C3(c4ccc(C)cc4)[C@@H](C#N)[C@H](C#N)C2(c2ccc(C)cc2)S3=O)cc1 (stereo partly drawn)
Output: > 100 µM

Task: Param item: CC(=O)SSC1(Cl)C(C)(C)C(Cl)(SSC(C)=O)C1(C)C (stereo not drawn)
Output: > 100 µM

Task: Param item: Cn1cc(C2=C(c3cn(CCSC(=N)N)c4ccccc34)C(=O)NC2=O)c2ccccc21
Output: 10.3 µM

Task: Param item: COc1ccc(NC(=O)C2C(=O)N(c3ccc(OC)cc3)C(=O)/C2=N\N)cc1 (stereo not drawn)
Output: > 100 µM

Task: Param item: C/C=N\n1c(C)n[nH]c1=O
Output: > 100 µM
